Provide the recorded activity at 10 µM for the entries that follow.
target: Rat NPY5 receptor (Rattus norvegicus); test: Rat NPY5 cyclase assay (in vitro functional assay, forskolin-stimulated adenylate cyclase, cAMP); format: cell-based; conditions: 20 min; 10 μM; percentage of forskolin-stimulated adenylate cyclase; read-out: rNPY5 % FSAC (10 μM)
Sequence (Q63634 whole entry): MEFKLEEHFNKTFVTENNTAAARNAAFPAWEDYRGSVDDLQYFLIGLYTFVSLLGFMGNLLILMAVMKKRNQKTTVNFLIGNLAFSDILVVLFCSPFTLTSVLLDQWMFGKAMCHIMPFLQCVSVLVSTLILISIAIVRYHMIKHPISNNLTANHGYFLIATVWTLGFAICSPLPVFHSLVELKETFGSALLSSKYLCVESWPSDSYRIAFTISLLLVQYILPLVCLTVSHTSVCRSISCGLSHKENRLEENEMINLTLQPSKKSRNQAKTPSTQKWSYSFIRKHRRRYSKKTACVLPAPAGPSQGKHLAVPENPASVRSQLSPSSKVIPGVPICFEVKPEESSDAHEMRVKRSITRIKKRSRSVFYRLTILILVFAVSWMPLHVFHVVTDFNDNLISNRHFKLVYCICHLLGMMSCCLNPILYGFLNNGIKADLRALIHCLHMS
Where a name gives a salt, the structure may show the parent alone.
One number for each entry, in %.

# per-item lookup of activity at 10 µM; items listed below
1. O=C(CN1CCC(n2c(=O)[nH]c3ccccc32)CC1)Nc1ccc(C(F)(F)F)cc1 [Compound 356, reference compound]
2. Cc1ccc(NC(=O)CN2CCC(n3c(=O)[nH]c4ccccc43)CC2)cc1 [Compound 359, reference compound]
3. Cl.N#CC(c1ccccc1)C1CCN(CC(=O)Nc2ccc(C3CCCCC3)cc2)CC1 (stereo not shown) [Compound 300, hydrochloride]

### Response
1: 105; 2: 104; 3: 90

### Prompt Recorded activity at 10 µM of Cc1ccc(OC(=O)c2ccc(NC(=O)CN3CCC(n4c(=O)[nH]c5ccccc54)CC3)cc2)cc1 [Compound 264, hydrochloride] , please.
### Response 139
